Test: Part 2 effect of a low-fat meal on PK
Type: in vivo, human
Settings: human, plasma, oral, 160 mg, tmax, Median (range), part 2, 160 mg, low-fat meal
Readout: Tmax (h)
Field: numeric (h). Do not append units.

q: Please list Tmax recorded for the molecule C=CC(=O)Nc1cc(Nc2ncc(C(=O)OC(C)C)c(-c3cn(C)c4ccccc34)n2)c(OC)cc1N(C)CCN(C)C [Mobocertinib]
a: 6

====

Experiment: Part 2 effect of a low-fat meal on PK
Type: in vivo, human
Conditions: human, plasma, oral, 120 mg, Cmax, Mean (SD), part 2, 120 mg, fasted
Readout: Cmax (ng/mL)
Form entry: value (ng/mL) — number only.

q: Report Cmax, nothing else, for this compound: C=CC(=O)Nc1cc(Nc2ncc(C(=O)OC(C)C)c(-c3cn(C)c4ccccc34)n2)c(OC)cc1N(C)CCN(C)C [Mobocertinib]
a: 35.5

====

Experiment: Part 2 effect of a low-fat meal on PK
Type: in vivo, human
Details: human, plasma, oral, 120 mg, Cmax, Geometric mean (% CV), part 2, 120 mg, low-fat meal
Readout: Cmax (ng/mL)
Value expressed in ng/mL; do not type the unit.

q: Give Cmax for `C=CC(=O)Nc1cc(Nc2ncc(C(=O)OC(C)C)c(-c3cn(C)c4ccccc34)n2)c(OC)cc1N(C)CCN(C)C`
a: 27.5

====

Assay: Part 1 single-ascending-dose study, plasma PK
Type: in vivo, human
Details: human, plasma, po
Readout: Tmax

q: Input C=CC(=O)Nc1cc(Nc2ncc(C(=O)OC(C)C)c(-c3cn(C)c4ccccc34)n2)c(OC)cc1N(C)CCN(C)C [Mobocertinib] , output reported Tmax.
a: 4 to 6 h

====

Test: Part 3 relative bioavailability of capsule B vs capsule A
Assay type: in vivo, human
Settings: human, plasma, oral, 160 mg
Readout: Tmax

q: Supply Tmax value. Item: C=CC(=O)Nc1cc(Nc2ncc(C(=O)OC(C)C)c(-c3cn(C)c4ccccc34)n2)c(OC)cc1N(C)CCN(C)C [Mobocertinib]
a: 5 to 6 h

====

Assay: Part 2 effect of a low-fat meal on PK
Format: in vivo, human
Details: human, plasma, oral, 120 mg, AUC∞, Mean (SD), part 2, 120 mg, fasted
Readout: AUC(0-inf) (ng·h/mL)
Hi! Could you send only the number? It should be in ng·h/mL, unit omitted.

q: Return AUC(0-inf) for the following compound: `C=CC(=O)Nc1cc(Nc2ncc(C(=O)OC(C)C)c(-c3cn(C)c4ccccc34)n2)c(OC)cc1N(C)CCN(C)C`
a: 587

====

Experiment: Part 2 effect of a low-fat meal on PK
Assay type: in vivo, human
Settings: human, plasma, oral, 160 mg, Cmax, Geometric mean (% CV), part 2, 160 mg, fasted
Readout: Cmax (ng/mL)
The figure you give is taken to be in ng/mL; do not add the unit.

q: State its Cmax: C=CC(=O)Nc1cc(Nc2ncc(C(=O)OC(C)C)c(-c3cn(C)c4ccccc34)n2)c(OC)cc1N(C)CCN(C)C [Mobocertinib]
a: 41

====

Experiment: Part 2 effect of a low-fat meal on PK
Type: in vivo, human
Conditions: human, plasma, oral, 160 mg, AUC∞, Geometric mean (% CV), part 2, 160 mg, low-fat meal
Readout: AUC(0-inf) (ng·h/mL)
The figure you give is taken to be in ng·h/mL; do not add the unit.

q: Give recorded AUC(0-inf). `C=CC(=O)Nc1cc(Nc2ncc(C(=O)OC(C)C)c(-c3cn(C)c4ccccc34)n2)c(OC)cc1N(C)CCN(C)C`
a: 706
